experimentalDetails: Transepithelial transport of BB across Caco-2 cell monolayers
Format: in vitro ADME
studyConditions: human, read-out: efflux ratio R = Papp(B-A)/Papp(A-B) of BB

# smilesRepr, efflux ratio at 240 min
measured = [
    ("COc1ccc2cc3[n+](cc2c1OC)CCc1cc2c(cc1-3)OCO2", 7.74),
]

Source listed as paper PMC6321252.
